experiment: plasmodial surface anion channel blockers, osmotic lysis – cell-based, P. falciparum Indochina, OD700, 1 h, primary screen (AID 1154); conditions: P. falciparum Indochina infected RBC osmotic lysis, called active from +8 up or from −8 down
Active and inactive are the calls of the source.
Form entry, call: pick from active, inactive

// below: answered compounds
COCCOC(=O)N1C(=O)[C@@]2(c3cc(C#CC4=CCCCC4)ccc31)[C@H](c1ccc(OCCO)cc1)N1[C@H](c3ccccc3)[C@H](c3ccccc3)OC(=O)[C@H]1[C@@H]2C(=O)N1CCc2cc(OC)c(OC)cc2C1 : inactive
CCCCCN1CC=CC23O[C@@H]4C=CCOC(=O)[C@@H]4[C@H]2C(=O)N(C(C)CO)[C@@H]3C1=O (some centres undefined) : inactive
CC(C)[Si](C#C[Si](C(C)C)(C(C)C)C(C)C)(O[C@H](C)c1cn(Cc2ccccc2)nn1)C(C)C : inactive
CO[C@H]1O[C@H](CO)[C@@H](OC(=O)Nc2cccc(F)c2)[C@H](OC(=O)Nc2ccccc2)[C@H]1OC(=O)Nc1ccccc1 : inactive
CCOC(=O)C[C@H]1[C@H](OC(=O)c2ccc(-c3ccccc3)cc2)[C@@H](NC(=O)c2ccccc2)c2cc(OCCCO)ccc2N1C(=O)c1ccc2ccccc2n1 : inactive
Cc1ccc(C2C3C(=O)CC4C(=O)N(c5ccccc5)C(=O)C4C3CN2S(=O)(=O)c2ccc(C)cc2)cc1 (centres undefined) : inactive
[N-]=[N+]=NCc1ccccc1[C@@H]1OC(c2ccc(OCCCO)cc2)=N[C@]1(CCS(=O)(=O)c1ccccc1)C(=O)N1CCCCC1 : active
CC(C)[Si](C#CCCCC#N)(Oc1ccccc1Br)C(C)C : inactive
NC(=O)[C@@H]1[C@H]2C(=O)O[C@H](c3ccccc3)[C@H](c3ccccc3)N2[C@H](c2ccc(OCCO)cc2)[C@@]12C(=O)Nc1ccc(C#CC3=CCCCC3)cc12 : inactive
COc1ccc(C(=O)Nc2ccc(CN3C(=O)[C@]4(O[C@H](CC(=O)N5CCC[C@H]5CO)[C@@H]([Si](C)(C)c5ccc(OC)cc5)[C@@H]4C)c4ccccc43)cc2)cc1 : inactive

Recorded test call requested for CC(=O)n1cc(C(O)C2C=CC3C(=O)NC(=O)C3N2Nc2ccccn2)c2ccccc21 (centres undefined)
inactive

Recorded test call requested for "O=C1O[C@H](c2ccccc2)[C@H](c2ccccc2)N2[C@H]1[C@@H](C(=O)NC[C@H](O)c1ccccc1)[C@]1(C(=O)Nc3ccc(C#CC4=CCCCC4)cc31)[C@H]2c1ccccc1OCCO"
inactive

Recorded test call requested for "COc1ccc([C@H]2OC[C@@H]3CCC(=O)N32)cc1"
inactive

Recorded test call requested for "CC#CC(=O)Oc1ccc(Br)cc1C=CC(=O)OCC"
active

----------
target: E3 ubiquitin-protein ligase XIAP (Homo sapiens); experiment: small molecules binding XIAP protein – biophysical, small-molecule microarray, fluorescence 635 nm, primary screen (AID 1181); conditions: higher = more signal;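 further: score merges 667 nm emission and signal to noise over triplicate slides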
Answer each item with its documented composite z-score.
One number for each entry.

Here is how some compounds turned out for composite z-score.
NCCCCCNC(=O)[C@H]1C[C@H]2C(=O)N3CCC[C@H]3C(=O)N2[C@H]1c1ccc(O)cc1 : 0.247
COc1ccc([C@H]2OC[C@@H]3CCC(=O)N32)cc1 : -0.199
COC(=O)[C@]1(Cc2ccccc2)N=C(c2ccc(OCCCO)cc2)O[C@@H]1c1ccccc1N=[N+]=[N-] : 0.336
CC(C)NC(=O)[C@@H]1c2ccccc2C(=O)N(C(C)C)[C@H]1c1ccc(CO)cc1 : -0.398

# return composite z-score for each item in the list
1. CCOC(=O)[C@H]1C/C=C/C[C@H](C(=O)OCC)C(=O)O[C@H]2[C@@H](OC)O[C@H](CO)[C@@H](OC(=O)c3ccc(Br)cc3)[C@@H]2OC1=O
2. CC(C)(C)OC(=O)CC[C@@]1(C(=O)N2CCCCC2)N=C(c2ccc(OCCCO)cc2)O[C@@H]1c1ccccc1
3. COCCOC(=O)N1C(=O)[C@@]2(c3cc(C#CC4(O)CCCCCC4)ccc31)[C@H](C(=O)Nc1nc3ccccc3s1)[C@H]1C(=O)O[C@H](c3ccccc3)[C@H](c3ccccc3)N1[C@@H]2c1ccc(OCCO)cc1

[-0.283, 0.138, 0.0073]

FYI, the data here is from PubChem BioAssay.
